So I've got a bunch of substances here, and I need their leakage Spots # values.
- Test system: choroidal neovascularization in BN rats
- assay.comment: Laser-induced choroidal neovascularization in BN rats (FFA)
- Assay type: in vivo, rat
- condition.summary: Day 28; 100 μg intravitreally once daily for 1 week (Table 53); total spots 67-71 by table
Where no end group is shown, it is not given here.

Past entries and their recorded results:
substance: mPEG-ALD20k-Arg-Gly-Ala-Asp-Arg-Ala-Gly-Gly-Gly-Gly-Arg-Gly-Asp ({mPEG‑ALD 20 kDa}-RGADRAGGGGRGD) [mPEG-ALD20k-HM-1]
experimental.target: choroidal neovascularization in BN rats
observed.measurement: 29
--
substance: mPEG-SC20k-Arg-Gly-Ala-Asp-Arg-Ala-Gly-Gly-Gly-Gly-Arg-Gly-Asp ({mPEG‑SC 20 kDa}-RGADRAGGGGRGD) [mPEG-SC20k-HM-1]
experimental.target: choroidal neovascularization in BN rats
observed.measurement: 28
--
substance: mPEG2-NHS20k-Arg-Gly-Ala-Asp-Arg-Ala-Gly-Gly-Gly-Gly-Arg-Gly-Asp ({mPEG2‑NHS 20 kDa}-RGADRAGGGGRGD) [mPEG2-NHS20k-HM-1]
experimental.target: choroidal neovascularization in BN rats
observed.measurement: 29

Next up:
-- ask May I ask what leakage Spots # has been recorded for mPEG-bALD20k-Arg-Gly-Ala-Asp-Arg-Ala-Gly-Gly-Gly-Gly-Arg-Gly-Asp ({mPEG‑bALD 20 kDa}-RGADRAGGGGRGD) [mPEG-bALD20k-HM-1] ?
-- reply 28

---

- Test system: choroidal neovascularization in BN rats
- assay.comment: Laser-induced choroidal neovascularization in BN rats (FFA)
- Type: in vivo, rat
- condition.summary: Day 14; 100 μg intravitreally once daily for 1 week (Table 53); total spots 132-138 by table
Where no end group is shown, it is not given here.
readout.label: leakage Spots #
One number for each entry.

substance: mPEG-bALD20k-Arg-Gly-Ala-Asp-Arg-Ala-Gly-Gly-Gly-Gly-Arg-Gly-Asp ({mPEG‑bALD 20 kDa}-RGADRAGGGGRGD) [mPEG-bALD20k-HM-1]
leakage Spots #: 63
--
substance: mPEG-SC20k-Arg-Gly-Ala-Asp-Arg-Ala-Gly-Gly-Gly-Gly-Arg-Gly-Asp ({mPEG‑SC 20 kDa}-RGADRAGGGGRGD) [mPEG-SC20k-HM-1]
leakage Spots #: 62
--
substance: mPEG-ALD20k-Arg-Gly-Ala-Asp-Arg-Ala-Gly-Gly-Gly-Gly-Arg-Gly-Asp ({mPEG‑ALD 20 kDa}-RGADRAGGGGRGD) [mPEG-ALD20k-HM-1]
leakage Spots #: 60

Next up:
-- ask Identify the measured leakage Spots # of mPEG2-NHS20k-Arg-Gly-Ala-Asp-Arg-Ala-Gly-Gly-Gly-Gly-Arg-Gly-Asp ({mPEG2‑NHS 20 kDa}-RGADRAGGGGRGD) [mPEG2-NHS20k-HM-1] for choroidal neovascularization in BN rats.
-- reply 63

---

- System: mouse spleen lymphocytes
- assay.comment: ConA-stimulated mouse spleen lymphocyte proliferation (MTT)
- Type: cell-based
- condition.summary: 5 μg/mL, ConA 5 μg/mL, 48 h
Where no end group is shown, it is not given here.
readout.label: Inhibition Rate of spleen lymphocyte proliferation (%)
Answers are plain numbers, in %.

Past entries and their recorded results:
substance: mPEG-ALD5k-Arg-Gly-Ala-Asp-Arg-Ala-Gly-Gly-Gly-Gly-Arg-Gly-Asp ({mPEG‑ALD 5 kDa}-RGADRAGGGGRGD) [mPEG-ALD5k-HM-1]
observed.measurement: 9.14
//
substance: mPEG2-NHS5k-Arg-Gly-Ala-Asp-Arg-Ala-Gly-Gly-Gly-Gly-Arg-Gly-Asp ({mPEG2‑NHS 5 kDa}-RGADRAGGGGRGD) [mPEG2-NHS5k-HM-1]
observed.measurement: 8.96
//
substance: mPEG-SC5k-Arg-Gly-Ala-Asp-Arg-Ala-Gly-Gly-Gly-Gly-Arg-Gly-Asp ({mPEG‑SC 5 kDa}-RGADRAGGGGRGD) [mPEG-SC5k-HM-1]
observed.measurement: 9.32

Next up:
-- ask Identify the measured Inhibition Rate of spleen lymphocyte proliferation of mPEG-bALD5k-Arg-Gly-Ala-Asp-Arg-Ala-Gly-Gly-Gly-Gly-Arg-Gly-Asp ({mPEG‑bALD 5 kDa}-RGADRAGGGGRGD) [mPEG-bALD5k-HM-1] for mouse spleen lymphocytes.
-- reply 9.82

---

So I've got a bunch of substances here, and I need their A570 nm/A630 nm values.
- Tested on: mouse spleen lymphocytes
- assay.comment: ConA-stimulated mouse spleen lymphocyte proliferation (MTT)
- Format: cell-based
- condition.summary: 10 μg/mL, ConA 5 μg/mL, 48 h
Where no end group is shown, it is not given here.
One number for each entry.

substance: mPEG2-NHS10k-Arg-Gly-Ala-Asp-Arg-Ala-Gly-Gly-Gly-Gly-Arg-Gly-Asp ({mPEG2‑NHS 10 kDa}-RGADRAGGGGRGD) [mPEG2-NHS10k-HM-1]
experimental.target: mouse spleen lymphocytes
A570 nm/A630 nm: 0.6239

Provide the reported A570 nm/A630 nm of each entry below, same order.
1. mPEG-SC5k-Arg-Gly-Ala-Asp-Arg-Ala-Gly-Gly-Gly-Gly-Arg-Gly-Asp ({mPEG‑SC 5 kDa}-RGADRAGGGGRGD) [mPEG-SC5k-HM-1]
2. mPEG-bALD5k-Arg-Gly-Ala-Asp-Arg-Ala-Gly-Gly-Gly-Gly-Arg-Gly-Asp ({mPEG‑bALD 5 kDa}-RGADRAGGGGRGD) [mPEG-bALD5k-HM-1]
3. mPEG-bALD10k-Arg-Gly-Ala-Asp-Arg-Ala-Gly-Gly-Gly-Gly-Arg-Gly-Asp ({mPEG‑bALD 10 kDa}-RGADRAGGGGRGD) [mPEG-bALD10k-HM-1]
4. mPEG-ALD10k-Arg-Gly-Ala-Asp-Arg-Ala-Gly-Gly-Gly-Gly-Arg-Gly-Asp ({mPEG‑ALD 10 kDa}-RGADRAGGGGRGD) [mPEG-ALD10k-HM-1]

-- reply
0.5480
0.5645
0.6179
0.6116

---

- Tested on: human retinal vascular endothelial cells (HRCEC)
- assay.comment: MTT proliferation of human retinal vascular endothelial cells
- Format: cell-based
- condition.summary: 100 μg/mL; HRCEC, 48 h, MTT
Where no end group is shown, it is not given here.
So I've got a bunch of substances here, and I need their A570 nm-A630 nm values.
Answers are plain numbers.

substance: mPEG-SC20k-Arg-Gly-Ala-Asp-Arg-Ala-Gly-Gly-Gly-Gly-Arg-Gly-Asp ({mPEG‑SC 20 kDa}-RGADRAGGGGRGD) [mPEG-SC20k-HM-1]
experimental.target: human retinal vascular endothelial cells (HRCEC)
A570 nm-A630 nm: 0.4372

Provide the reported A570 nm-A630 nm of each entry below, same order.
1. mPEG-ALD40k-Arg-Gly-Ala-Asp-Arg-Ala-Gly-Gly-Gly-Gly-Arg-Gly-Asp ({mPEG‑ALD 40 kDa}-RGADRAGGGGRGD) [mPEG-ALD40k-HM-1]
2. mPEG2-NHS20k-Arg-Gly-Ala-Asp-Arg-Ala-Gly-Gly-Gly-Gly-Arg-Gly-Asp ({mPEG2‑NHS 20 kDa}-RGADRAGGGGRGD) [mPEG2-NHS20k-HM-1]

-- reply
1. 0.5999
2. 0.4677

---

So I've got a bunch of substances here, and I need their CNV Incidence rate values.
- Tested on: choroidal neovascularization in BN rats
- assay.comment: Laser-induced choroidal neovascularization in BN rats (FFA)
- Type: in vivo, rat
- condition.summary: Day 3 after administration; 25 μg intravitreally once daily for 1 week (Table 53)
Where no end group is shown, it is not given here.
Give the number first and the unit second.

Past entries and their recorded results:
substance: mPEG-ALD5k-Arg-Gly-Ala-Asp-Arg-Ala-Gly-Gly-Gly-Gly-Arg-Gly-Asp ({mPEG‑ALD 5 kDa}-RGADRAGGGGRGD) [mPEG-ALD5k-HM-1]
CNV Incidence rate: 55.17%
--
substance: mPEG-SC5k-Arg-Gly-Ala-Asp-Arg-Ala-Gly-Gly-Gly-Gly-Arg-Gly-Asp ({mPEG‑SC 5 kDa}-RGADRAGGGGRGD) [mPEG-SC5k-HM-1]
CNV Incidence rate: 54.73%
--
substance: mPEG2-NHS5k-Arg-Gly-Ala-Asp-Arg-Ala-Gly-Gly-Gly-Gly-Arg-Gly-Asp ({mPEG2‑NHS 5 kDa}-RGADRAGGGGRGD) [mPEG2-NHS5k-HM-1]
CNV Incidence rate: 56.12%

Next up:
-- ask May I ask what CNV Incidence rate has been recorded for mPEG-bALD5k-Arg-Gly-Ala-Asp-Arg-Ala-Gly-Gly-Gly-Gly-Arg-Gly-Asp ({mPEG‑bALD 5 kDa}-RGADRAGGGGRGD) [mPEG-bALD5k-HM-1] ?
-- reply 55.29%

Source: patent US10869931B2
